Target: T1, UNK ZnF1-6 (called full-length) (human, UniProt Q9C0B0 30-357)
T1 sequence: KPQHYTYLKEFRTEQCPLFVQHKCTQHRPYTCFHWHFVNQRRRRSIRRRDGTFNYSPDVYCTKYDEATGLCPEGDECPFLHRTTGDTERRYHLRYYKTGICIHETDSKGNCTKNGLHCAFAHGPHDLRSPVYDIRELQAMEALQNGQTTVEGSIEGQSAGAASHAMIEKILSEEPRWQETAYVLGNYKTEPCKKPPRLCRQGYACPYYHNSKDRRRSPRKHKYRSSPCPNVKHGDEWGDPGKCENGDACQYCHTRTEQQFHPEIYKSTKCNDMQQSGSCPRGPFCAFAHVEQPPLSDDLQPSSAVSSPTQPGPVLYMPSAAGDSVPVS
Test: nsRBNS (natural sequence RNA bind-n-seq); RBNS binding buffer (assumed for nsRBNS): 25 mM Tris pH 7.5, 150 mM KCl, 3 mM MgCl2, 0.01% Triton X-100, 500 ug/ml BSA, 20 U/ml SUPERase-In, 4 C; UNK is unkempt and MSI1 is Musashi-1; names of the RNAs are library labels; protein concentration not given here; high values mean tight binding
Whole data set: some 5,800 sequences, median “enrichment r” near 0.68, cut for the highest 2% near 11. These entries were drawn from the full list.
I'd appreciate it if you could supply binding signal values for the items below.
Record the value in enrichment R, omitting the unit from your answer.

Task: What does the record list as binding signal for ENSG00000107863:be:win_6101|3pUTR|ENSG00000107863|bound_else_gene|NA|bound_elsewhere_windowed (ssRNA) RNA: GGGAGUUCUACAGUCCGACGAUCGCAAGGUAUUUGUUGCAACUUACUACAUAGCAUAUACCCAAAAUCACUGAAGAAAAUCGCUGGCAUCAGUGUGCAGCAAAUUUGUUCUUUUGGUUUCAUCACUAACAAAAGUGCCUCAUCCAACAGAGGAUUGAGCAUCA ?
Result: 0.567

Task: Next: chr12:10081268:10081413:-|three_prime_utr|ENSG00000150048|control|control|control (ssRNA) RNA: GGGAGUUCUACAGUCCGACGAUCUCAGUACUACCAGCUCUCCAAUACUGGUCAAGACACCAUUUCUCAAAUGGAAGAAAGAUUAGGAAAUACGUCCCAAGAGUUGCAAUCUCUUCAAGUCCAGAAUAUAAAGCUUGCAGGAAGCAACAGAGGAUUGAGCAUCA
Result: 0.413

Task: Next: ENSG00000064393:stop:overlap|stop_codon|ENSG00000064393|stop_codon|NA|stop_codon (ssRNA) RNA: GGGAGUUCUACAGUCCGACGAUCUCUCCCUGGAGAGUGGUUUUCCUGCUUUUCUGCUGCUAGAAAUGUUGCUGUAUGGGAGCUAGUACAAUAGAAAGUGCCCAGUGACUGCAGGCGACCCUUACCGAGGAUUUUAUUCAAGUACAACAGAGGAUUGAGCAUCA
Result: 0.569

Task: Next: chr10:71816642:71816777:-|3pUTR|ENSG00000197746|msi1_unk|total|mutant (ssRNA) RNA: GGGAGUUCUACAGUCCGACGAUCUUGUUUGGGGUUCUGUGGGUUUGGGUGGGAAGAGGGCCAUCUGCCUGAAUGUAACCUGCCCGCUCUCCGAAGGCCCUGCGGGCCUGGCUUGUGUGAGCGUGUGGACAGUGGUGGCCGCGCCAACAGAGGAUUGAGCAUCA
Result: 0.901

Task: Next: ENSG00000124766:be:win_3751|3pUTR|ENSG00000124766|bound_else_gene|NA|bound_elsewhere_windowed (ssRNA) RNA: GGGAGUUCUACAGUCCGACGAUCUUGUACAUUUAAGUCUGUAUUAUAAUAAGCAAAAAGAUUGUGUGUAUGUAUGUUUAAUAUAACAUGACAGGCACUAGGACGUCUGCCUUUUUAAGGCAGUUCCGUUAAGGGUUUUUGUUUCAACAGAGGAUUGAGCAUCA
Result: 0.359

Task: Next: ENSG00000070961:be:win_5851|3pUTR|ENSG00000070961|bound_else_gene|NA|bound_elsewhere_windowed (ssRNA) RNA: GGGAGUUCUACAGUCCGACGAUCAUGAAUGUAAUUACCAAAAGAUUUAGAAGUGCAUGUGCUUUGGAGGAUUUGUAUUGAGCUUUUACAGUAUUCAUUUUUCAACUCAAGGCAAUGGCUUUCUACACCAACUCUAAUCCAUAACAACAGAGGAUUGAGCAUCA
Result: 0.908
